# Tested on: A498 complex spheroids with HUVEC/MSC, growth
# Assay overview: Anticancer human tumor A498 cell line growth inhibition [AhR];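 also: luminescence signal used as a surrogate for viable cells; seven day exposure starting three days after spheroid seeding; luminescence viability scaled so 100% equals DMSO vehicle wells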
# Measurement parameters: second compound 1 µM; first compound 3 µM; stronger effect = lower value
Catalogue of viability, T/C values
Readout kind: viability, T/C

| Compound | Study target | Result |
| --- | --- | --- |
| CCN(c1cc(-c2ccc(CN3CCOCC3)cc2)cc(C(=O)NCc2c(C)cc(C)[nH]c2=O)c1C)C1CCOCC1 + Cc1ccccc1N=Nc1ccc(NC(=O)c2ccnn2C)c(C)c1 | A498 complex spheroids with HUVEC/MSC, growth | 91.6% |
| O=C(C=Cn1cnc(-c2cc(C(F)(F)F)cc(C(F)(F)F)c2)n1)NNc1cnccn1 + Cc1cncc(-c2nc(NCCc3c[nH]c4ccccc34)c3ncn(C(C)C)c3n2)c1 | A498 complex spheroids with HUVEC/MSC, growth | 24.6% |
| O=C(C=Cn1cnc(-c2cc(C(F)(F)F)cc(C(F)(F)F)c2)n1)NNc1cnccn1 + Cc1ccccc1N=Nc1ccc(NC(=O)c2ccnn2C)c(C)c1 | A498 complex spheroids with HUVEC/MSC, growth | 20.2% |
| CCN(c1cc(-c2ccc(CN3CCOCC3)cc2)cc(C(=O)NCc2c(C)cc(C)[nH]c2=O)c1C)C1CCOCC1 + CC(CO)NC(=O)c1cc(-c2ccc(Cl)cc2)nn(-c2cnn(C)c2)c1=O | A498 complex spheroids with HUVEC/MSC, growth | 97.4% |
| CCN(c1cc(-c2ccc(CN3CCOCC3)cc2)cc(C(=O)NCc2c(C)cc(C)[nH]c2=O)c1C)C1CCOCC1 + Cc1cncc(-c2nc(NCCc3c[nH]c4ccccc34)c3ncn(C(C)C)c3n2)c1 | A498 complex spheroids with HUVEC/MSC, growth | 88.1% |
| O=C(C=Cn1cnc(-c2cc(C(F)(F)F)cc(C(F)(F)F)c2)n1)NNc1cnccn1 + CC(CO)NC(=O)c1cc(-c2ccc(Cl)cc2)nn(-c2cnn(C)c2)c1=O | A498 complex spheroids with HUVEC/MSC, growth | 16.7% |
